In this section, each of the compounds is paired with its reported pIC50.
Target: PD-1/PD-L1 (Homo sapiens)
Construct: Recombinant human PD-L1 protein (19-238) with a His-tagged at the C-terminus; PD1-H5257 (PD-1)
Sequence (Q9NZQ7 19-238): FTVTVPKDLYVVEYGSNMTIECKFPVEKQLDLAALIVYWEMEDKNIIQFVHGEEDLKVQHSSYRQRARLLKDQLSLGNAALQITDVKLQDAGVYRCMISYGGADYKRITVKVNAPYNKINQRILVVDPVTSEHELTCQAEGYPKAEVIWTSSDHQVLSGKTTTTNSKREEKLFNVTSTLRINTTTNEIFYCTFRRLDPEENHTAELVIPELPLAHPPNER
Experiment: PD-1/PD-L1 homogeneous time-resolved fluorescence (HTRF) binding assay
Conditions: PD-1/PD-L1 HTRF binding, ~3 nM PD1, 10 nM PD-L1, 25° C., PBS pH 7.4
pIC50: −log10 of the molar value.

| lineNotation | targetEntity | obsValue |
| --- | --- | --- |
| COc1nc(-c2cccc(-c3cccc(-c4cc5cc6c(c(C#N)c5o4)CC[C@H]6N4CC[C@@H](C(=O)O)C4)c3Cl)c2C)cnc1CNC[C@@H]1CCC(=O)N1 | PD-1/PD-L1 (Homo sapiens) | ≥ 8.00 |
| Cc1c(Nc2nccc3cc(CNC[C@@H]4CCC(=O)N4)cnc23)cccc1-c1cccc(-c2cc3cc4c(c(C#N)c3o2)CC[C@H]4N2CC[C@@H](C(=O)O)C2)c1Cl | PD-1/PD-L1 (Homo sapiens) | ≥ 8.00 |

May I ask what pIC50 has been recorded for COc1nc(-c2cccc(-c3cccc(-c4nc5cc6c(c(C#N)c5o4)CC[C@H]6NCCC(=O)O)c3Cl)c2Cl)cnc1CN1CC[C@@H](O)C1 ?
≥ 8.00

====

This listing pairs compounds with measured pIC50.
Biological target: PD-1/PD-L1 (Homo sapiens)
Construct: Recombinant human PD-L1 protein (19-238) with a His-tagged at the C-terminus; PD1-H5257 (PD-1)
Test: PD-1/PD-L1 homogeneous time-resolved fluorescence (HTRF) binding assay
Conditions: PD-1/PD-L1 HTRF binding, ~3 nM PD1, 10 nM PD-L1, 25° C., PBS pH 7.4
pIC50: −log10 of the molar value.

| compound | obsValue |
| --- | --- |
| Cc1c(Nc2nccc3cc(CN4CC[C@@H](O)C4)cnc23)cccc1-c1cccc(-c2nc3cc4c(c(C#N)c3o2)CC[C@H]4N2CC[C@@H](C(=O)O)C2)c1Cl | ≥ 8.00 |
| N#Cc1c2c(cc3nc(-c4cccc(-c5cccc(Nc6nccc7cc(CN8CC[C@@H](O)C8)cnc67)c5Cl)c4Cl)oc13)[C@@H](N1CC[C@@H](C(=O)O)C1)CC2 | ≥ 8.00 |

Consider the compound Cc1c(Nc2nccc3cc(CN4CC[C@@H](O)C4)cnc23)cccc1-c1cccc(-c2nc3cc4c(c(C#N)c3o2)CCC4N2CC[C@@H](C(=O)O)C2)c1Cl (stereo partly drawn) and give its measured pIC50.
≥ 8.00
